- TEST_TARGET: Vhr2 (Saccharomyces cerevisiae)
- Sequence: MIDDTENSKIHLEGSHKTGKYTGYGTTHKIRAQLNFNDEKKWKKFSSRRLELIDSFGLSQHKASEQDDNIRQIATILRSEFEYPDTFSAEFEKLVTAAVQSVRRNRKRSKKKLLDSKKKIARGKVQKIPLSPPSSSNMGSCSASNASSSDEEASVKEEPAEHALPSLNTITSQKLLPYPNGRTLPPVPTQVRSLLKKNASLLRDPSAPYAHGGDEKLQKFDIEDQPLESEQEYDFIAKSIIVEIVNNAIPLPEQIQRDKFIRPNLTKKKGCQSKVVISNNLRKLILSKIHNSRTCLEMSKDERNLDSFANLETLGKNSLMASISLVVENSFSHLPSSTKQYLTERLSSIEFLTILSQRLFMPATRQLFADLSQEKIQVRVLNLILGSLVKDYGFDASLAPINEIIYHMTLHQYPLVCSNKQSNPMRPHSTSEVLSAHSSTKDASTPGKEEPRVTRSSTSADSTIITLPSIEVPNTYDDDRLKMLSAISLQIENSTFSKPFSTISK
- CONDITION_NOTES: 200 nM
ENDPOINT: binding signal (PBM E-score (-0.5 to 0.5))
Form rule: numeric answer, no unit written next to it.

Field binding signal (PBM E-score (-0.5 to 0.5)) (system: Vhr2 (Saccharomyces cerevisiae)) for entry ATGAGTCA (double strand) [8-mer ATGAGTCA] = 0.498

Known value: Vhr2 (Saccharomyces cerevisiae) binding signal (PBM E-score (-0.5 to 0.5)) of the sequence CATGACTC (double strand) [8-mer CATGACTC] equals 0.494

Sample AATGACTC (double strand) [8-mer AATGACTC] , system: Vhr2 (Saccharomyces cerevisiae). Its binding signal (PBM E-score (-0.5 to 0.5)) is 0.495

Field binding signal (PBM E-score (-0.5 to 0.5)) (system: Vhr2 (Saccharomyces cerevisiae)) for entry CTGAGTCA (double strand) [8-mer CTGAGTCA] = 0.496

The value of binding signal (PBM E-score (-0.5 to 0.5)) recorded for ATGACTCC (double strand) [8-mer ATGACTCC] when tested on Vhr2 (Saccharomyces cerevisiae) reads 0.493

Lab note: sequence ATGACTAA (double strand) [8-mer ATGACTAA] tested on Vhr2 (Saccharomyces cerevisiae); recorded binding signal (PBM E-score (-0.5 to 0.5)) was 0.494

The sequence GAGTCACC (double strand) [8-mer GAGTCACC] , when measured on Vhr2 (Saccharomyces cerevisiae), yielded binding signal (PBM E-score (-0.5 to 0.5)) of 0.496

---

- TEST_TARGET: Vhr1 (Saccharomyces cerevisiae) (UniProt P40522)
- Sequence: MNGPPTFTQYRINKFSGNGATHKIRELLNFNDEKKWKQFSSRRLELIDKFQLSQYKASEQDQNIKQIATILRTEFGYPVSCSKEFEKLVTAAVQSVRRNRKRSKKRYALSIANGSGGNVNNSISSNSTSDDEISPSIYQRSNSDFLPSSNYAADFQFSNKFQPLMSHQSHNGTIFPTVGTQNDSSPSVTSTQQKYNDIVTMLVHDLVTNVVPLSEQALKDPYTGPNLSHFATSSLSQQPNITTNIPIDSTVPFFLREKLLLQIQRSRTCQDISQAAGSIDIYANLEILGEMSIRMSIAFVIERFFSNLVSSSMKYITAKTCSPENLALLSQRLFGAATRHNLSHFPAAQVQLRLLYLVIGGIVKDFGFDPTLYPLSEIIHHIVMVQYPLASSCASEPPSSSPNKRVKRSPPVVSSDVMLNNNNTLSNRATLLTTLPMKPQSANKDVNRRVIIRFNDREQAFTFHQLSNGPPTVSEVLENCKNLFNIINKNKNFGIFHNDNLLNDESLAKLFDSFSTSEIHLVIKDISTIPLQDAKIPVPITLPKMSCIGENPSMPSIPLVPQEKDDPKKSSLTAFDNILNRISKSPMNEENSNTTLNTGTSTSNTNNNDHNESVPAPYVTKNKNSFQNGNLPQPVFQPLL
- CONDITION_NOTES: 200 nM
ENDPOINT: binding signal (PBM E-score (-0.5 to 0.5))
Output spec: single numeric token, no unit.

These recorded examples may help you get a feel for the data.
[
  {
    "SEQUENCE_CHAIN": "CTGAGTCA (double strand) [8-mer CTGAGTCA]",
    "TEST_TARGET": "Vhr1 (Saccharomyces cerevisiae) (UniProt P40522)",
    "TEST_RESULT": 0.489
  },
  {
    "SEQUENCE_CHAIN": "CATGACTC (double strand) [8-mer CATGACTC]",
    "TEST_TARGET": "Vhr1 (Saccharomyces cerevisiae) (UniProt P40522)",
    "TEST_RESULT": 0.485
  },
  {
    "SEQUENCE_CHAIN": "CGGAGTCA (double strand) [8-mer CGGAGTCA]",
    "TEST_TARGET": "Vhr1 (Saccharomyces cerevisiae) (UniProt P40522)",
    "TEST_RESULT": 0.485
  },
  {
    "SEQUENCE_CHAIN": "ATGACTCA (double strand) [8-mer ATGACTCA]",
    "TEST_TARGET": "Vhr1 (Saccharomyces cerevisiae) (UniProt P40522)",
    "TEST_RESULT": 0.495
  },
  {
    "SEQUENCE_CHAIN": "GTGACTCA (double strand) [8-mer GTGACTCA]",
    "TEST_TARGET": "Vhr1 (Saccharomyces cerevisiae) (UniProt P40522)",
    "TEST_RESULT": 0.496
  }
]

According to the records, this sequence GAGTCACA (double strand) [8-mer GAGTCACA] displays binding signal (PBM E-score (-0.5 to 0.5)) of 0.487

Quick note, binding signal (PBM E-score (-0.5 to 0.5)) for GGAGTCAC (double strand) [8-mer GGAGTCAC] landed at 0.485

Field binding signal (PBM E-score (-0.5 to 0.5)) (entry GAGTCATA (double strand) [8-mer GAGTCATA] ) reads 0.484

---

- TEST_TARGET: Mot3 (Saccharomyces cerevisiae) (UniProt P54785)
- Sequence: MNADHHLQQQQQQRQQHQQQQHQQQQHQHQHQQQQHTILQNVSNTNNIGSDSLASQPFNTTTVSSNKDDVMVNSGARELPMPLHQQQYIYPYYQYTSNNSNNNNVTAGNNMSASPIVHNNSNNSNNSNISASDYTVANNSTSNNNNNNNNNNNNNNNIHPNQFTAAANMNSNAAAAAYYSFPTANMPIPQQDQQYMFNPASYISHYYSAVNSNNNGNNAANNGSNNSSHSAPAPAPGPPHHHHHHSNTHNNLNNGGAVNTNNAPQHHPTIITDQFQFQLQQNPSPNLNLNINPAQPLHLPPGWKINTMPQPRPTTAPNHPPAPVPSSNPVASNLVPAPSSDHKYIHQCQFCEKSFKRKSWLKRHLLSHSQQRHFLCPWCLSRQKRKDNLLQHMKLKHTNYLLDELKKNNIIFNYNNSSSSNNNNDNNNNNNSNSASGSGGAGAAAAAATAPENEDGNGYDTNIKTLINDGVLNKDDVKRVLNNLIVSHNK
- CONDITION_NOTES: 200 nM
ENDPOINT: binding signal (PBM E-score (-0.5 to 0.5))
Just the number.

[
  {
    "SEQUENCE_CHAIN": "CAGGCACC (double strand) [8-mer CAGGCACC]",
    "TEST_RESULT": 0.496
  },
  {
    "SEQUENCE_CHAIN": "CAGGCACG (double strand) [8-mer CAGGCACG]",
    "TEST_RESULT": 0.496
  }
]

Consider now this further sequence.
Let me check: GTAGGCAC (double strand) [8-mer GTAGGCAC] , system Mot3 (Saccharomyces cerevisiae) (UniProt P54785), measured binding signal (PBM E-score (-0.5 to 0.5)) is 0.495

---

# maps each entry to its binding signal (PBM E-score (-0.5 to 0.5))
- TEST_TARGET: Hmlalpha2 (Saccharomyces cerevisiae) (UniProt P0CY09)
- Sequence: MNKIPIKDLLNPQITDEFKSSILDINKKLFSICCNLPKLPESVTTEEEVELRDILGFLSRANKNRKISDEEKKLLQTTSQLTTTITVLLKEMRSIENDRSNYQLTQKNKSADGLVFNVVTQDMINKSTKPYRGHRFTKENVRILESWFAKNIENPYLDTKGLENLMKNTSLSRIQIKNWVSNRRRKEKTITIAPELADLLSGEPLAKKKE
- CONDITION_NOTES: 200 nM
API note: the answer field is a bare number with no unit suffix.

[
  {
    "SEQUENCE_CHAIN": "CGTGTAAA (double strand) [8-mer CGTGTAAA]",
    "TEST_RESULT": 0.493
  },
  {
    "SEQUENCE_CHAIN": "CATGTAAA (double strand) [8-mer CATGTAAA]",
    "TEST_RESULT": 0.491
  }
]

binding signal (PBM E-score (-0.5 to 0.5)) in this record for CTTTACAC (double strand) [8-mer CTTTACAC] : 0.489

binding signal (PBM E-score (-0.5 to 0.5)) for ATTACATG (double strand) [8-mer ATTACATG] is 0.495

Sample CCGTGTAA (double strand) [8-mer CCGTGTAA] ; binding signal (PBM E-score (-0.5 to 0.5)) observed: 0.486

# sequence CCATGTAA (double strand) [8-mer CCATGTAA] ; its binding signal (PBM E-score (-0.5 to 0.5)) = 0.486

Form field binding signal (PBM E-score (-0.5 to 0.5)), entry CATGTTAA (double strand) [8-mer CATGTTAA] : 0.489

// ATTACACG (double strand) [8-mer ATTACACG] : binding signal (PBM E-score (-0.5 to 0.5)) value = 0.495

The recorded binding signal (PBM E-score (-0.5 to 0.5)) for ACATGTAA (double strand) [8-mer ACATGTAA] is 0.488
